Ref: patent US6583334B1

test: Serum levels of E by radioimmunoassay; assay type: in vivo, BALB/c female mice; conditions: female, BALB/c, mouse, 24 h after injection of 1 μg E at 5 wks post OVX, n=4, read-out: E serum level
EXPERIMENTAL_READOUT: concentration at 24 h (ng/mL)
Use ng/mL as the unit, but write only the number.

Q: Quote concentration at 24 h reported for C[C@]12CC[C@@H]3c4ccc(O)cc4CC[C@H]3[C@@H]1CC[C@@H]2O [E, 17β-estradiol] please.
Result: 0.031
